test system: A549; assay: Cytotoxicity against human A549 cells assessed as growth inhibition at 50 uM after 48 hrs by sulforhodamine B assay; type: functional; settings: A549, 48 h, read-out: GI
Listed compounds paired with reported inhibition of growth at 50 µM
Numbers only here, please. The scale is %.

Check out these entries, answers already filled in.
Structure Smiles String | Attribute Measured | Units Of Measure | Reported
COc1cc(-c2cc3c4ccccc4n(C(C)=O)c3nn2)cc(OC)c1OC | inhibition of growth at 50 µM | % | 20
CC(=O)n1c2ccccc2c2cc(-c3ccccc3)nnc21 | inhibition of growth at 50 µM | % | 10
CC(=O)n1c2ccccc2c2cc(-c3ccc[nH]3)nnc21 | inhibition of growth at 50 µM | % | 12
CC(=O)n1c2cccc(Cl)c2c2cc(-c3cccc4ccccc34)nnc21 | inhibition of growth at 50 µM | % | 18
COc1ccc(-c2cc3c4c(I)cccc4n(C(C)=O)c3nn2)cc1OC | inhibition of growth at 50 µM | % | 11

Incoming: inhibition of growth at 50 µM lookup needed for COc1ccc(-c2cc3c4c(Br)cccc4n(C(C)=O)c3nn2)cc1 , thanks.
Outgoing: 7

Incoming: Entry CC(=O)n1c2cccc(Br)c2c2cc(-c3ccc4ccccc4c3)nnc21 : reported inhibition of growth at 50 µM = ?
Outgoing: 8
